system: Noggin (protein binding on small-molecule microarray); assay: Noggin binders on small-molecule microarray, primary screen, biochemical, 635/667 nm fluorescence (AID 1095); conditions: 635 nm fluorescence, higher = more signal;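 also: score merges 667 nm feature fluorescence with signal to noise over triplicate slides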
PARAMETER MEASURED: composite z-score

Lookup: Which value of composite z-score has been reported for CC(C)C(O)C1C=CC2C(=O)N(c3ccccc3)C(=O)C2N1Nc1ccc(C#N)cc1 (stereo not drawn) in the records?
Found: -0.388

Lookup: And COC(=O)[C@]1(Cc2ccccc2N=[N+]=[N-])N=C(c2ccc(OCCCO)cc2)O[C@@H]1c1ccccc1N=[N+]=[N-] ?
Found: 0.347

Lookup: And [N-]=[N+]=Nc1ccccc1[C@H]1OC(c2ccc(OCCCO)cc2)=N[C@@]1(CCS(=O)(=O)c1ccccc1)C(=O)O ?
Found: -0.688

----------
system: Wnt5a (protein binding on small-molecule microarray); assay: Wnt5a binders on small-molecule microarray, primary screen, biophysical, 635/667 nm fluorescence (AID 1142); conditions: 635 nm fluorescence, higher = more signal;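 also: fluorescence read at 667 nm with signal to noise per printed feature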
PARAMETER MEASURED: composite z-score

The cases that follow already have their composite z-score on record.
CCOC(=O)C[C@H]1[C@H](OC(=O)Cc2ccc3c(c2)OCO3)[C@@H](NC(=O)c2ccc(-c3ccccc3)cc2)c2cc(OCCCO)ccc2N1C(=O)c1ccccc1
0.0105
CC(C)C[C@@H]1NC(=O)[C@@H]2C[C@H](C(=O)NCCCCCC[N+](C)(C)C)[C@H](c3ccc(O)cc3)N2C1=O
0.0505

Shifting focus to the compound that follows.
Lookup: Which value of composite z-score has been reported for CO[C@H]1O[C@H](CO)[C@@H](OC(=O)Nc2ccc(Oc3ccccc3)cc2)[C@H](OC(=O)Nc2ccccc2)[C@H]1OC(=O)Nc1ccccc1 in the records?
Found: 1.07

----------
Each entry below carries its reported composite z-score.
target: Epidermal growth factor receptor (Homo sapiens) (UniProt P00533); assay: EGFR binders on small-molecule microarrays, primary screen, biochemical, small-molecule microarray, 635 nm fluorescence (AID 1104); conditions: EGFR binding, higher = more signal;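 also: score merges 667 nm emission intensity with spot signal to noise over triplicate slides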
Sequence (P00533 whole entry, looked up): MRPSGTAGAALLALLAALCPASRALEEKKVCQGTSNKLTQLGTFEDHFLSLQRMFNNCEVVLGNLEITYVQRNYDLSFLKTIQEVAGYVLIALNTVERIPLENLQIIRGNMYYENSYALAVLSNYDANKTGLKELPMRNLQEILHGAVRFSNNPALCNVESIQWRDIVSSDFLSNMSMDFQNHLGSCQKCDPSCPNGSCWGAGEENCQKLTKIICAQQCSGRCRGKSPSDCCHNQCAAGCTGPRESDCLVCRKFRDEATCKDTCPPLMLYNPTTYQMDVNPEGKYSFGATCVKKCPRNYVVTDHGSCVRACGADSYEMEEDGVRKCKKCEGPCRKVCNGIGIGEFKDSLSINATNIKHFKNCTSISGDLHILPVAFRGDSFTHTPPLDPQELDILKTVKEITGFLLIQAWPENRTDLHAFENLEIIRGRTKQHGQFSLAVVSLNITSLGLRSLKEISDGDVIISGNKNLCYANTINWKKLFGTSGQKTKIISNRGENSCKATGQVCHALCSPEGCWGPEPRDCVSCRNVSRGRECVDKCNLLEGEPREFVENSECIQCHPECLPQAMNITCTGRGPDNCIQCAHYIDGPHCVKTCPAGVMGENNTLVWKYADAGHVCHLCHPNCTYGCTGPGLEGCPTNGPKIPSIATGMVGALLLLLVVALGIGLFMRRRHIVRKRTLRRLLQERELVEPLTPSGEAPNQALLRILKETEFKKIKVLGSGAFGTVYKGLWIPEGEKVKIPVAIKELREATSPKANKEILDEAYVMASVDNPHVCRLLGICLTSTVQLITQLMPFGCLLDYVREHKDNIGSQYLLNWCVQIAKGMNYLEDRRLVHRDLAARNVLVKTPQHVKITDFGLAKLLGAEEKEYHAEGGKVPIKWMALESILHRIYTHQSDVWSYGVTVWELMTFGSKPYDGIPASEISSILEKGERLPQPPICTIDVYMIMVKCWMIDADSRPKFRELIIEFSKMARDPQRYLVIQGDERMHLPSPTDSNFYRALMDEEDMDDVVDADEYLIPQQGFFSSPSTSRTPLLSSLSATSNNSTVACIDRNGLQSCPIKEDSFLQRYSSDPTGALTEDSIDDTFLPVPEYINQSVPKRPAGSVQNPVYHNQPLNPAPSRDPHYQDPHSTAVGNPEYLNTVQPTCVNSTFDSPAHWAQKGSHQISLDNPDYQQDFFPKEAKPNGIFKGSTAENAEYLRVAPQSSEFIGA
# answer = number (no unit)

The cases that follow already have their composite z-score on record.
O=C1N(CCS(=O)(=O)c2ccccc2)Cc2ccccc2[C@H]2OC(c3ccc(OCCCO)cc3)=N[C@@]12CCS(=O)(=O)c1ccccc1
0.423
O=C1C2C=CC(C(O)c3ccc(F)cc3)N(Nc3ccccc3)C2C(=O)N1c1ccccc1 (centres undefined)
-0.296
COc1ccc(C#Cc2ccc3c(c2)[C@]2(C(=O)N3)[C@H](c3ccc(O)cc3)N3[C@H](c4ccccc4)[C@H](c4ccccc4)OC(=O)[C@H]3[C@@H]2C(=O)N2CCCCCCC2)cc1
1.18

Shifting focus to the compound that follows.
Lookup: Which value of composite z-score has been reported for COCCCNC(=O)[C@@]1(C)c2ccccc2C(=O)N(Cc2cc(C(F)(F)F)cc(C(F)(F)F)c2)[C@H]1c1ccc(CO)cc1 in the records?
Found: -1.24

----------
test: small-molecule microarray binders of probe aWnt5a, primary screen, biochemical, biotinylated probe, 635/667 nm fluorescence (AID 1113); conditions: higher = more signal;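 also: score merges 667 nm fluorescence intensity with signal-to-noise per printed feature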
The threshold is inclusive: composite z-score of exactly -0.07 counts as Criterion met; values below receive Criterion not met.

Use the examples below as a reference point.
COC(=O)[C@@]1(Cc2ccc(OC)cc2)[C@H]2c3cc(C(=O)N(C)C)n(Cc4c(OC)[nH]cc(C)c4=O)c3C[C@H]2CN1C(=O)c1ccccc1
Criterion not met
O=C1O[C@H](c2ccccc2)[C@H](c2ccccc2)N2[C@H]1[C@@H](C(=O)O)[C@]1(C(=O)Nc3ccc(C#CC4(O)CCCCCC4)cc31)[C@H]2c1ccc(OCCO)cc1
Criterion met
C[C@H]1NC(=O)[C@H](Cc2ccccc2)NC(=O)[C@@]23C(=O)N[C@@H](Cc4ccccc4)C2[C@H](C)[C@@]2(C)O[C@H]2C3/C=C/C/C=C\CNC1=O (stereo partly drawn)
Criterion not met
CCOC(=O)C1=C[C@@H](C(C)C)N(S(=O)(=O)c2ccc(C)cc2)[C@H]1c1ccc(C(C)C)cc1
Criterion not met
CC(C)CNC(=O)[C@@]1(c2ccc([N+](=O)[O-])cc2)CC(=O)N(CC23CC4CC(CC(C4)C2)C3)[C@@H]1c1ccc(CO)cc1
Criterion met

Lookup: Is composite z-score for C=C(COC)C(=O)CC[C@@H](OC(=O)c1cccnc1)c1ccc(CO)o1 at or above -0.07?
Found: Criterion not met

Lookup: And CC(c1ccccc1)C(O)C1C=CC2C(=O)NC(=O)C2N1Nc1ccccn1 (stereo not drawn) ?
Found: Criterion met

Lookup: And NCCCCCCNC(=O)[C@H]1C[C@H]2C(=O)NCC(=O)N2[C@H]1c1cccc(OCCO)c1 ?
Found: Criterion met

Lookup: And [N-]=[N+]=NCc1ccccc1C[C@]1(C(=O)NCC(O)CO)N=C(c2ccc(OCCCO)cc2)O[C@H]1c1ccccc1N=[N+]=[N-] (stereo partly drawn) ?
Found: Criterion met

Lookup: And O=C1O[C@@H](c2ccccc2)[C@@H](c2ccccc2)N2[C@@H](c3ccc(O)cc3)[C@]3(C(=O)Nc4ccc(C#CC5(O)CCCCCC5)cc43)[C@@H](C(=O)N3CCCCCCC3)[C@H]12 ?
Found: Criterion met

Lookup: And COC(=O)[C@@]1(Cc2ccccc2)N=C(c2ccc(OCCCO)cc2)O[C@H]1c1ccccc1N=[N+]=[N-] ?
Found: Criterion met

Lookup: And CCOC(=O)C1=CC[C@@H](c2ccccc2)N(S(=O)(=O)c2ccc(C)cc2)[C@H]1C(=O)OCC ?
Found: Criterion met

Lookup: And O=C(CCN1CCOCC1)c1cccc(O)c1 ?
Found: Criterion met

Lookup: And O=C1N(CCS(=O)(=O)c2ccccc2)Cc2ccccc2C[C@]12N=C(c1ccc(OCCCO)cc1)O[C@@H]2c1ccccc1 ?
Found: Criterion met
